EXPERIMENTAL PROTOCOL: recombinant UMI read abundance after kanamycin selection (control-corrected) (log10(CPM+1)); higher = more efficient recombination; extreme values may be limits of the assay; sequences stand for … in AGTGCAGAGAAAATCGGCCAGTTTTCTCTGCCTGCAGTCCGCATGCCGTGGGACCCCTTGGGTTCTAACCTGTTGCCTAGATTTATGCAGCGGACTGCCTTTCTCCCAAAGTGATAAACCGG…AGGTTGGTTTCACT; site = the 11-nt donor;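 note: IS621 bridge recombinase in Escherichia coli cells against a fixed T5 target plasmid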
recombinant UMI read abundance (log10) listing for selected sequences.
Give the figure only, with no unit attached.

Some solved entries appear below for comparison.
> print(dat)
                              sequence.code                         reported.metric  value.measured
1  CAGAAGACATGGACCGGTTTTCCCGGTAATCCGTATTTGCA (site CAGAAGACTTG)  recombinant UMI read abundance (log10)            3.09
2  ACCCAAGCATGGACCGGTTTTCCCGGTAATCCGTATTTGAG (site ACCCAAGCTCT)  recombinant UMI read abundance (log10)            1.97
3  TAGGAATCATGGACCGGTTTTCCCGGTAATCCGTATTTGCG (site TAGGGATCTCG)  recombinant UMI read abundance (log10)            1.43
4  TAAGTATCATGGACCGGTTTTCCCGGTAATCCGTATTTGAC (site TAAGTATCTGT)  recombinant UMI read abundance (log10)            3.03

Recorded recombinant UMI read abundance (log10) of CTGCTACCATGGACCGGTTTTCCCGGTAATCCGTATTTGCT (site CTGATACCTAG) , please.
0
